system: SW-620 colon; experiment: NCI tumour cell line growth inhibition, 48 h
reported-property: TGI

Use the examples below as a reference point.
INSERT INTO results (compound, tested_system, reported_property, reported_result) VALUES
  ('OC(c1cc(-c2ccccc2)nc2ccc(Cl)cc12)C1CCCCN1 (stereo not given)', 'SW-620 colon', 'TGI', '3.69 µM'),
  ('CCCCCCCCN=C(N)c1ccc(N2CCN(c3ccc(C(N)=NCCCCCCCC)cc3)CC2)cc1', 'SW-620 colon', 'TGI', '16.8 µM'),
  ('N=c1oc2cc(O)ccc2cc1C(=O)NCc1ccccc1', 'SW-620 colon', 'TGI', '81.6 µM'),
  ('COc1cc(OC(C)=O)cc2c(OC(C)=O)ccc(OC(C)=O)c12', 'SW-620 colon', 'TGI', '> 100 µM'),
  ('COc1ccc(-c2csc(N(C(=O)N3CCN(c4cc5c(cc4F)c(=O)c(C(=O)O)cn5C4CC4)CC3)c3ccccc3)n2)cc1', 'SW-620 colon', 'TGI', '> 100 µM'),
  ('CC1=Nc2ccccc2S/C1=C(/C)NNC(=O)C(N)=O', 'SW-620 colon', 'TGI', '> 100 µM'),
  ('COC(=O)c1ccccc1CC1Cc2ccc3c(c2C1=O)CCC3 (stereo not given)', 'SW-620 colon', 'TGI', '> 100 µM'),
  ('Nn1c(NNC(=O)C(=O)Nc2cc(Cl)c(Cl)cc2Cl)n[nH]c1=S', 'SW-620 colon', 'TGI', '> 100 µM');

*Q* Determine from records and report TGI for "NCCOCCOCCNc1nc(Cc2ccccc2)nc(NCCCN2CCCC2=O)n1"
*A* > 100 µM

*Q* For the compound CCOC(=O)c1c(N)sc2c1C(C(=O)OCC)CC2 (stereo not given) , give its reported TGI.
*A* > 100 µM

====

This listing pairs compounds with measured TGI.
test system: RXF 393 renal; test: NCI tumour cell line growth inhibition, 48 h
Field format: number, assumed µM, no unit text.

INSERT INTO measurements (compound, reported_result) VALUES
  ('Cc1cc(N(CCCl)CCCl)ccc1C=Nc1ccc(-c2csc(Cc3ccccc3)n2)cc1', 71.3),
  ('CC(=O)OCOC(=O)CN(CC(=O)OCOC(C)=O)Cc1cc2c(cc1OC(C)=O)Oc1cc(OC(C)=O)c(CN(CC(=O)OCOC(C)=O)CC(=O)OCOC(C)=O)cc1C21OC(=O)c2ccccc21', 1.43),
  ('CCCCC(CC)CN=C(N)NC(N)=NCCCCCCN=C(N)NC(N)=NCC(CC)CCCC (centres undefined)', 6.43);

*Q* Please look at this compound and report its TGI: "COc1cccc(-n2ncc3c(N/N=C/c4ccc(C(=O)NCCN(C)C)cc4)ncnc32)c1"
*A* 3.53

====

system: RPMI-8226 leukemia; assay: NCI tumour cell line growth inhibition, 48 h
Recorded measurements of TGI, one per entry

INSERT INTO measurements (molecule, tested_system, reported_result) VALUES
  ('C#CCOCn1cnc2c(Cl)ncnc21', 'RPMI-8226 leukemia', '> 100 µM'),
  ('Cc1c(/C=N/NC(=O)c2cc(Br)cc(Br)c2O)c(=O)n(-c2ccccc2)n1C', 'RPMI-8226 leukemia', '> 100 µM'),
  ('CC(C)c1cc(-c2n[nH]c(=O)n2-c2ccc3c(ccn3C)c2)c(O)cc1O', 'RPMI-8226 leukemia', '31.3 µM'),
  ('CC[C@H]1C=CCC[C@@]2(C[C@@H]3CC[C@@H]4[C@H](C(=O)OCCCCCCCCCCCCCCCC(=O)O)[C@]5(CCC[C@@H](C)O5)NC(=[N+]34)N2)O1', 'RPMI-8226 leukemia', '0.582 µM'),
  ('Cn1cccc1-c1cc(-c2cccs2)nc(N)c1C#N', 'RPMI-8226 leukemia', '> 100 µM'),
  ('O=C1C(Br)=CC2(C=C1Br)CCNC1=C2C(=O)c2ccccc2C1=O', 'RPMI-8226 leukemia', '41 µM'),
  ('CCc1nccc2c1nc(-c1nonc1N)n2CC', 'RPMI-8226 leukemia', '> 25 µM'),
  ('COc1cc(C2C(C(=O)O)=C(CO)Oc3cc4c(cc32)OCO4)cc(OC)c1O (centres undefined)', 'RPMI-8226 leukemia', '> 100 µM'),
  ('CCOC(=O)c1c(N2CCCC2)nsc1Nc1ccc(F)cc1', 'RPMI-8226 leukemia', '> 100 µM'),
  ('Oc1cccc2ccc(N/N=C/c3cc(CN4CCCCC4)c(O)c4ncccc34)nc12', 'RPMI-8226 leukemia', '9.29 µM');

*Q* Using the record for Cc1nc2cccc(F)c2c(=O)n1C1CCCCNC1=O (centres undefined) , state its measured TGI.
*A* > 10 µM

*Q* Determine its reported TGI: "C=CCNc1nc(C#N)c(N)s1"
*A* > 10 µM

*Q* Supply TGI value. Item: "C[C@H](OCc1ccccc1)C(=O)N1CCS(=O)(=O)N2CCC[C@H]2C1=O"
*A* > 100 µM

*Q* Dear colleague, please send me the reported TGI for "[N-]=[N+]=Nc1c(C=O)c(=O)n2c3c(cccc13)CCC2" when you can.
*A* > 22.3 µM

====

test system: A549 NSCLC; test: NCI tumour cell line growth inhibition, 48 h
Reported TGI values are given for each entry in this list.

Reference set, count: 10
INSERT INTO results (compound, tested_system, reported_result) VALUES
  ('CC12CCC(CC1=O)C2(C)CCC(N)=O (stereo unspecified)', 'A549 NSCLC', '> 100 µM'),
  ('CCCCCCCCCCCCCCCCN1CC2CCCCC2C1 (stereo unspecified)', 'A549 NSCLC', '17 µM'),
  ('O=C(/C=C(\O)c1ccccc1)C(=O)NNc1ccc([N+](=O)[O-])cc1[N+](=O)[O-]', 'A549 NSCLC', '34.1 µM'),
  ('CCSCCC(N)C(=O)O (stereo unspecified)', 'A549 NSCLC', '> 100 µM'),
  ('Cc1c(C(=O)C/C(=N\O)C(=O)Nc2cc(Cl)c(Cl)cc2Cl)[n+](=O)c2ccccc2n1[O-]', 'A549 NSCLC', '> 100 µM'),
  ('CCOC(=O)COc1ccccc1/C=C1\CCC(CN(C)C)C1=O (stereo unspecified)', 'A549 NSCLC', '42.8 µM'),
  ('COc1cc(/C=C/c2cc(O)c3cc(C(C)=O)c(=O)oc3c2)cc2c1O[C@]1(C)CC[C@@H](O)C(C)(C)[C@H]1C2', 'A549 NSCLC', '> 53.2 µM'),
  ('COc1cccc2c1c(C(=O)C(=O)Nc1cc(C)no1)cn2Cc1ccc(F)cc1', 'A549 NSCLC', '> 100 µM'),
  ('CCN(CC)CSc1nc2ccccc2s1', 'A549 NSCLC', '> 100 µM'),
  ('N#C/C(=C\c1ccc(O)c(O)c1)C(N)=S', 'A549 NSCLC', '> 100 µM');

# context switch: different compound, same TGI
*Q* Could you please provide reported TGI for "Cc1nc(N)nc(N)c1-c1ccc(Cl)c(Cl)c1" ? Thanks!
*A* > 100 µM

====

test system: A549 NSCLC; test: NCI tumour cell line growth inhibition, 48 h
Recorded GI50 by entry

Sample answers from the record:
INSERT INTO results (compound, reported_result) VALUES
  ('Nc1nc2c(c3ncncc13)C(c1cccc(C(F)(F)F)c1)Cc1ncncc1-2 (stereo not given)', '5.45 µM'),
  ('COc1cc(C2CC(c3ccc4c(c3)OCO4)=NN2C=O)cc(OC)c1OC (stereo not given)', '> 24.5 µM'),
  ('COc1cc(/C=C/c2cc(O)c3cc(C(C)=O)c(=O)oc3c2)cc2c1O[C@]1(C)CC[C@@H](O)C(C)(C)[C@H]1C2', '> 24.2 µM'),
  ('Cn1cccc1-c1cc(-c2cccs2)nc(N)c1C#N', '> 100 µM'),
  ('COc1ccc(-c2nc3sc4c(c3c(=O)[nH]2)CCCCCC4)cc1', '2.94 µM');

*Q* Entry "O=C(NCCO)Nc1ccc(-c2nc(N3CCOCC3)c3cccn3n2)cc1" needs its GI50 filled in; supply it.
*A* 2.07 µM

*Q* Provide only the value of recorded GI50 for "O=C1/C(=C\c2c[nH]c3ccccc23)c2ccccc2N1c1c(Cl)cccc1Cl"
*A* 2.62 µM

*Q* Entry "N#Cc1c(N2CCCC2)[nH]c(=O)c(C(c2c(Cl)cccc2Cl)c2c(O)c(C#N)c(N3CCCC3)[nH]c2=O)c1O" needs its GI50 filled in; supply it.
*A* 18.8 µM

*Q* Could you please provide reported GI50 for "CCOC(=O)c1cc(NS(=O)(=O)c2ccccc2)cc(C(=O)OCC)c1" ? Thanks!
*A* > 100 µM

*Q* State its GI50: "NCCOCCOCCNc1nc(Cc2ccccc2)nc(NCCCN2CCCC2=O)n1"
*A* > 100 µM

From: PubChem BioAssay (NCI)
